test system: 186277-243-T-J2-PDC complex spheroid growth; experiment: Anticancer human tumor 186277-243-T-J2-PDC patient-derived colon adenocarcinoma cell line growth inhibition [AhR]; settings: curve of first compound; second compound 0.1 µM
pIC50: −log10 of the molar value.
measured.endpoint: pIC50

Some solved cases for reference:
molecule: CC[C@@]1(O)C(=O)OCc2c1cc1n(c2=O)Cc2cc3c(CN(C)C)c(O)ccc3nc2-1 + Cc1cncc(-c2nc(NCCc3c[nH]c4ccccc34)c3ncn(C(C)C)c3n2)c1
result: < 7.00
--
molecule: COc1cccc2c1C(=O)c1c(O)c3c(c(O)c1C2=O)CC(O)(C(=O)CO)CC3OC1CC(N)C(O)C(C)O1 (stereo not drawn) + Cc1ccccc1N=Nc1ccc(NC(=O)c2ccnn2C)c(C)c1
result: 6.34

Problem: State the recorded pIC50 for this entry: Nc1ncn(C2CC(O)C(CO)S2)c(=O)n1 (stereo not drawn) + Cc1ccccc1N=Nc1ccc(NC(=O)c2ccnn2C)c(C)c1
Result: < 6.52

====

test system: 186277-243-T-J2-PDC complex spheroid growth; assay: Anticancer human tumor 186277-243-T-J2-PDC cell line growth inhibition [AhR]; conditions: second compound 1 µM; first compound 10 µM; active = viability on the fitted dose curve at most 10% of control; inactive = the rest;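 note: spheroids exposed to compounds for seven days before the viability read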
Please answer using one outcome listed in yes = active, no = inactive

For orientation, consider the following solved cases.
compound: CC1(C)CCC(CN2CCN(c3ccc(C(=O)NS(=O)(=O)c4ccc(NCC5CCOCC5)c([N+](=O)[O-])c4)c(Oc4cnc5[nH]ccc5c4)c3)CC2)=C(c2ccc(Cl)cc2)C1 + CC(CO)NC(=O)c1cc(-c2ccc(Cl)cc2)nn(-c2cnn(C)c2)c1=O
qualitative.label: no
//
compound: COc1cc(C2c3cc4c(cc3C(OC3OC5COC(C)OC5C(O)C3O)C3COC(=O)C23)OCO4)cc(OC)c1O (stereo unspecified) + Cc1cncc(-c2nc(NCCc3c[nH]c4ccccc34)c3ncn(C(C)C)c3n2)c1
qualitative.label: no
//
compound: COc1cc(C2c3cc4c(cc3C(OC3OC5COC(C)OC5C(O)C3O)C3COC(=O)C23)OCO4)cc(OC)c1O (stereo unspecified) + CC(CO)NC(=O)c1cc(-c2ccc(Cl)cc2)nn(-c2cnn(C)c2)c1=O
qualitative.label: no

Problem: What outcome does the record of this test show for Nc1ccccc1NC(=O)c1ccc(CNC(=O)OCc2cccnc2)cc1 + Cc1cncc(-c2nc(NCCc3c[nH]c4ccccc34)c3ncn(C(C)C)c3n2)c1 ?
Result: yes

Problem: State the result this test recorded for CC1(C)CCC(CN2CCN(c3ccc(C(=O)NS(=O)(=O)c4ccc(NCC5CCOCC5)c([N+](=O)[O-])c4)c(Oc4cnc5[nH]ccc5c4)c3)CC2)=C(c2ccc(Cl)cc2)C1 + Cc1cncc(-c2nc(NCCc3c[nH]c4ccccc34)c3ncn(C(C)C)c3n2)c1 .
Result: no

Problem: // param item: Nc1ccn(C2OC(CO)C(O)C2(F)F)c(=O)n1 (stereo unspecified) + CC(CO)NC(=O)c1cc(-c2ccc(Cl)cc2)nn(-c2cnn(C)c2)c1=O ; yields the recorded call
Result: yes

Problem: Query: recorded result category for NS(=O)(=O)OCC1CC(n2ccc3c(NC4CCc5ccccc54)ncnc32)CC1O (stereo unspecified) + Cc1cncc(-c2nc(NCCc3c[nH]c4ccccc34)c3ncn(C(C)C)c3n2)c1 in this test
Result: yes

Problem: Identify the outcome logged in this assay for the compound shown: COc1cc(Nc2ncc3c(n2)-c2ccc(Cl)cc2C(c2c(F)cccc2OC)=NC3)ccc1C(=O)O + Cc1cncc(-c2nc(NCCc3c[nH]c4ccccc34)c3ncn(C(C)C)c3n2)c1
Result: no

Problem: Just curious, what result did CC(C)c1c(-c2ccccc2)nc2c(C#N)c[nH]n2c1=O + Cc1cncc(-c2nc(NCCc3c[nH]c4ccccc34)c3ncn(C(C)C)c3n2)c1 get here?
Result: no

Problem: Just curious, what result did Nc1ccccc1NC(=O)c1ccc(CNC(=O)OCc2cccnc2)cc1 + Cc1ccccc1N=Nc1ccc(NC(=O)c2ccnn2C)c(C)c1 get here?
Result: no

Problem: So what was the verdict on COc1cccc2c1C(=O)c1c(O)c3c(c(O)c1C2=O)CC(O)(C(=O)CO)CC3OC1CC(N)C(O)C(C)O1 (stereo unspecified) + CC(CO)NC(=O)c1cc(-c2ccc(Cl)cc2)nn(-c2cnn(C)c2)c1=O in this test?
Result: yes
